Overview of reported pKi across a group of compounds:
target_or_system: Sodium-dependent serotonin transporter (Rattus norvegicus, UniProt P31652)
Sequence (P31652 whole entry): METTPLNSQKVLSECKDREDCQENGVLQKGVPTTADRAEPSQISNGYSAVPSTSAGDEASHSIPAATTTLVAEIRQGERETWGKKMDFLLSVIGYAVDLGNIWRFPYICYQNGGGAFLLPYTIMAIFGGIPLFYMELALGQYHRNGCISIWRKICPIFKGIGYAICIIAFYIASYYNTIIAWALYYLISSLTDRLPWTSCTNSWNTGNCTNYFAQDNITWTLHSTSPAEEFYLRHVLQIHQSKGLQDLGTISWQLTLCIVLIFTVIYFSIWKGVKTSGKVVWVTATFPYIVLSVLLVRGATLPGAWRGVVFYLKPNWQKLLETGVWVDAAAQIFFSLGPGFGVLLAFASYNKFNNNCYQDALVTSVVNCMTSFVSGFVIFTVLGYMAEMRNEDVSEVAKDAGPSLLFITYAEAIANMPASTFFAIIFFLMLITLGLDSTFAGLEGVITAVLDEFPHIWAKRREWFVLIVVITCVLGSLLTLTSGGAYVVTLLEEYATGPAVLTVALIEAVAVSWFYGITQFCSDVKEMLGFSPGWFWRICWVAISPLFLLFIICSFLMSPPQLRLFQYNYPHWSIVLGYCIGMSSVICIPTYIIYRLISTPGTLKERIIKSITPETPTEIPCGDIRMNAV
experiment_notes: Displacement of specific [3H]- citalopram binding to 5-HT uptake site in rat whole cortex
The read-out pKi is expressed as -log10 of concentration in moles per litre.

Worked cases, pKi given:
OC(COc1cc(F)cc2c1OCCC2)CN1CCC2(CC1)OCc1c2ccc2ccccc12 (stereo not given) = 7.14
OC(CCc1ccccc1)CN1CCC2(CC1)OCc1c2ccc2ccccc12 (stereo not given) = 8.00
OC(COc1ccc(F)c2c1OCCC2)CN1CCC2(CC1)OCc1c2ccc2ccccc12 (stereo not given) = 7.31
O[C@H](COc1ccccc1)CN1CCC2(CC1)OCc1c2ccc2ccccc12 = 7.30
O=C1CCc2c(F)ccc(OCC(O)CN3CCC4(CC3)OCc3c4ccc4ccccc34)c21 (stereo not given) = 7.35

pKi lookup needed for O[C@H](COc1ccccc1F)CN1CCC2(CC1)OCc1c2ccc2ccccc12 , thanks.
7.28

pKi lookup needed for CCc1cccc(OC[C@@H](O)CN2CCC3(CC2)OCc2c3ccc3ccccc23)c1 , thanks.
7.06

pKi lookup needed for OC(COCc1ccccc1)CN1CCC2(CC1)OCc1c2ccc2ccccc12 (stereo not given) , thanks.
7.08

pKi lookup needed for c1ccc(CCCCN2CCC3(CC2)OCc2c3ccc3ccccc23)cc1 , thanks.
7.55

pKi lookup needed for O[C@@H](COc1ccccc1F)CN1CCC2(CC1)OCc1c2ccc2ccccc12 , thanks.
6.92
